Values compiled from BigSolDB 2.1.

Details: in methyl acetate, 333.15 K
recordedEndpoint: solubility (mole fraction)

                                   molecule            recordedendpoint  recordedmeasurement
0  CN(CCOc1ccc(CC2SC(=O)NC2=O)cc1)c1ccccn1 (stereo unspecified)  solubility (mole fraction)               0.0126

----------
Conditions: in acetone, 283.15 K
recordedEndpoint: solubility (mole fraction)

>>> df
                                   compound  recordedmeasurement
0  CN(CCOc1ccc(CC2SC(=O)NC2=O)cc1)c1ccccn1 (stereo unspecified)              0.00177

----------
Settings: in acetonitrile, 293.15 K
recordedEndpoint: solubility (mole fraction)

                                   compound  recordedmeasurement
0  CN(CCOc1ccc(CC2SC(=O)NC2=O)cc1)c1ccccn1 (stereo unspecified)             0.000453

----------
Details: in n-butyl acetate, 333.15 K
recordedEndpoint: solubility (mole fraction)

>>> print(df.to_string())
                                   molecule  recordedmeasurement
0  CN(CCOc1ccc(CC2SC(=O)NC2=O)cc1)c1ccccn1 (stereo unspecified)               0.0092

----------
Conditions: in ethanol, 313.15 K
recordedEndpoint: solubility (mole fraction)

>>> print(df.to_string())
                                   compound  recordedmeasurement
0  CN(CCOc1ccc(CC2SC(=O)NC2=O)cc1)c1ccccn1 (stereo unspecified)              0.00067

----------
Conditions: in acetonitrile, 283.15 K
recordedEndpoint: solubility (mole fraction)

In [3]: df
Out[3]:
                                   compound            recordedendpoint  recordedmeasurement
0  CN(CCOc1ccc(CC2SC(=O)NC2=O)cc1)c1ccccn1 (stereo unspecified)  solubility (mole fraction)             0.000267

----------
Details: in ethanol, 283.15 K
recordedEndpoint: solubility (mole fraction)

>>> df
                                   compound  recordedmeasurement
0  CN(CCOc1ccc(CC2SC(=O)NC2=O)cc1)c1ccccn1 (stereo unspecified)             0.000245

----------
Conditions: in isopropanol, 333.15 K
recordedEndpoint: solubility (mole fraction)

                                   compound  recordedmeasurement
0  CN(CCOc1ccc(CC2SC(=O)NC2=O)cc1)c1ccccn1 (stereo unspecified)              0.00218

----------
Details: in ethanol, 293.15 K
recordedEndpoint: solubility (mole fraction)

In [3]: df
Out[3]:
                                   compound  recordedmeasurement
0  CN(CCOc1ccc(CC2SC(=O)NC2=O)cc1)c1ccccn1 (stereo unspecified)             0.000341

----------
Conditions: in acetonitrile, 313.15 K
recordedEndpoint: solubility (mole fraction)

In [3]: df
Out[3]:
                                   molecule            recordedendpoint  recordedmeasurement
0  CN(CCOc1ccc(CC2SC(=O)NC2=O)cc1)c1ccccn1 (stereo unspecified)  solubility (mole fraction)              0.00126
